# target: HLA-A*68:02
# assay_summary: IEDB peptide-MHC binding, purified MHC/competitive/radioactivity; filed as Kd, often an IC50 or EC50 that approximates it; bounds were set here for any values at or beyond the usual limits of such assays
# reported_conditions: source organism: Dengue virus 2 Jamaica/1409/1983
This section presents sequences with their documented pKd values.
For clarity, pKd is expressed as the negative log10 of concentration in mol/L.

INPUT: Fill in: pKd of CSAVPSHWV is ___
OUTPUT: 8.04

INPUT: Same read-out for HSIENSSVNV ?
OUTPUT: 7.51

INPUT: Same read-out for LVAFLRFLTI ?
OUTPUT: 6.99

---

# target: HLA-A*02:19
# assay_summary: IEDB peptide-MHC binding, purified MHC/competitive/fluorescence; filed as Kd, often an IC50 or EC50 that approximates it; bounds were set here for any values at or beyond the usual limits of such assays
# reported_conditions: source organism: Desulfatibacillum alkenivorans AK-01
value_kind: Kd (µM)
Report as a plain number; the unit µM is understood.

INPUT: Fill in: Kd of KLGKAGYVV is ___
OUTPUT: 0.117

---

# target: HLA-A*02:01
# assay_summary: IEDB peptide-MHC binding, purified MHC/competitive/fluorescence; filed as Kd, often an IC50 or EC50 that approximates it; bounds were set here for any values at or beyond the usual limits of such assays
# reported_conditions: source organism: Orthohantavirus andesense
pKd: −log10 of the molar value.
value_kind: pKd

INPUT: What value of pKd on HLA-A*02:01 does QIQAGNFHW have?
OUTPUT: ≤ 4.70

---

# target: HLA-A*02:01
# assay_summary: IEDB peptide-MHC binding, purified MHC/direct/fluorescence; filed as Kd, often an IC50 or EC50 that approximates it; bounds were set here for any values at or beyond the usual limits of such assays
# reported_conditions: source organism: Bacillus anthracis str. Sterne
value_kind: pKd
For clarity, pKd is expressed as the negative log10 of concentration in mol/L.

INPUT: Fill in: pKd of TTYVYTLPV is ___
OUTPUT: 7.05

---

# target: HLA-B*35:01
# assay_summary: IEDB peptide-MHC binding, purified MHC/direct/fluorescence; filed as Kd, often an IC50 or EC50 that approximates it; bounds were set here for any values at or beyond the usual limits of such assays
# reported_conditions: source organism: Escherichia coli O157:H7
value_kind: Kd (nM)
Report as a plain number; the unit nM is understood.

INPUT: What value of Kd on HLA-B*35:01 does LPEFERRTL have?
OUTPUT: 16.3

---

# target: HLA-A*02:16
# assay_summary: IEDB peptide-MHC binding, purified MHC/competitive/fluorescence; filed as Kd, often an IC50 or EC50 that approximates it; bounds were set here for any values at or beyond the usual limits of such assays
# reported_conditions: source organism: Vibrio vulnificus YJ016
value_kind: Kd

INPUT: Fill in: Kd of VTFGARASF is ___
OUTPUT: ≥ 20 µM

---

# target: HLA-B*39:01
# assay_summary: IEDB peptide-MHC binding, purified MHC/competitive/fluorescence; filed as Kd, often an IC50 or EC50 that approximates it; bounds were set here for any values at or beyond the usual limits of such assays
# reported_conditions: source organism: Shigella boydii CDC 3083-94
pKd: −log10 of the molar value.
value_kind: pKd

INPUT: Fill in: pKd of MAMTGLPQA is ___
OUTPUT: ≤ 4.70
